Reference for the values: patent US11459338B2

MEASURED TARGET: PRMT5/MEP50 (Homo sapiens, UniProt O14744)
Construct: Full-length human PRMT5 (NP_006100)
Sequence (O14744 whole entry): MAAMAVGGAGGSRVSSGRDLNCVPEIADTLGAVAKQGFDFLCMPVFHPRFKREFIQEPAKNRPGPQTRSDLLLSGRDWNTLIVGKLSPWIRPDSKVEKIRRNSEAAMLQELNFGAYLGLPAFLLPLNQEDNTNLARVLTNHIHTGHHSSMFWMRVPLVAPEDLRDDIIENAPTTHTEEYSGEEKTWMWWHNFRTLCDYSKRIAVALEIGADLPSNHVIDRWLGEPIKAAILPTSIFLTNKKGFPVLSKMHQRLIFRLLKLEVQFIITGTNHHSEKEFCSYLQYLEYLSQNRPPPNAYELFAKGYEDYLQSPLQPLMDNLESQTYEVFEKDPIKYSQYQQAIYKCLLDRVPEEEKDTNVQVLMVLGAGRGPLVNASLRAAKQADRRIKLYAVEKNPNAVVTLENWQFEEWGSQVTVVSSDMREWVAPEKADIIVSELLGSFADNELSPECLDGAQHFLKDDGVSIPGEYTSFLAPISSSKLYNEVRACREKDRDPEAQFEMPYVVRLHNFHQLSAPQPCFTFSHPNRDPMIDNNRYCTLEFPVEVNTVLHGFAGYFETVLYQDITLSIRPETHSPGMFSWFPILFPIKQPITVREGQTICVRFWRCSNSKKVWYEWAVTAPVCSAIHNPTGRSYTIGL
Sequence (Q9BQA1 whole entry partner): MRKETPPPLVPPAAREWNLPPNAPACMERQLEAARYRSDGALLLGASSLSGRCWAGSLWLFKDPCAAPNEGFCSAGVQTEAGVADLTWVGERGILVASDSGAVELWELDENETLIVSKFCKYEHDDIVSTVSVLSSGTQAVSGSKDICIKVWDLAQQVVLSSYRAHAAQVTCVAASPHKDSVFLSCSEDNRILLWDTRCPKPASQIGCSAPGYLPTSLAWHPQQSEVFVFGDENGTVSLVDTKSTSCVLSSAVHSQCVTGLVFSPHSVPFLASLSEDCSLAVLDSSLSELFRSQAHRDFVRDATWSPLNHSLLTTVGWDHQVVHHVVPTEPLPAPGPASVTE
EXPERIMENTAL PROTOCOL: PRMT5/MEP50 enzyme assay on peptide substrates (3H-SAM Flashplate)
Assay type: biochemical
TEST SETTINGS: PRMT5/MEP50 10 nM, H4 1-15aa peptide 100 nM, 3H-SAM 1 μM
METRIC: IC50

Cc1noc(C)c1-c1ccc2nc(C(=O)NC[C@H](O)CN3CCc4ccccc4C3)cn2c1: 0.01 to 1 µM
Cn1cc(-c2ccn3nc(C(=O)NC[C@H](O)CN4CCc5ccccc5C4)cc3n2)cn1: 1 to 5 µM

Entry under review: "CN(C[C@H](O)CN1CCc2ccccc2C1)C(=O)c1cn2cc(-c3ccc(C#N)cc3)ncc2n1" . Reported IC50?
0.01 to 1 µM

Entry under review: "O=C(NC[C@H](O)CN1CCc2ccccc2C1)c1cn2cc(-c3cnn([C@@H]4CCOC4)c3)ccc2n1" . Reported IC50?
0.01 to 1 µM

Entry under review: O=C(NC[C@H](O)CN1CCc2ccccc2C1)c1cn2c(n1)CCC(C(F)(F)F)C2 (some centres unmarked) . Reported IC50?
1 to 5 µM

---

MEASURED TARGET: PRMT5/MEP50 (Homo sapiens)
Construct: Full-length human PRMT5 (NP_006100)
EXPERIMENTAL PROTOCOL: PRMT5/MEP50 enzyme assay on peptide substrates (3H-SAM Flashplate)
TEST SETTINGS: PRMT5/MEP50 10 nM, H4 1-15aa peptide 100 nM, 3H-SAM 1 μM
METRIC: IC50

O=C(NC[C@H](O)CN1CCc2ccccc2C1)c1cn2cc(N3CCOCC3)ccc2n1: 0.01 to 1 µM
Cn1cc(C2CCc3nc(C(=O)NCC(O)CN4CCc5ccccc5C4)cn3C2)cn1 (centres unmarked): 1 to 5 µM
O=C(NC[C@H](O)CN1CCc2ccccc2C1)c1cn2cc(C(F)(F)F)cnc2n1: 0.01 to 1 µM
Cn1ccc(-c2cn3cc(C(=O)NC[C@H](O)CN4CCc5ccccc5C4)nc3cn2)cc1=O: 0.01 to 1 µM
Cn1cc([C@H]2CCc3nc(C(=O)NC[C@H](O)CN4CCc5ccccc5C4)cn3C2)cn1 [Example 120A]: 0.01 to 1 µM

Entry under review: "CN(C[C@H](O)CN1CCc2ccccc2C1)C(=O)c1cc2nc(C(F)(F)F)ccn2n1" . Reported IC50?
1 to 5 µM

Entry under review: "CCn1cc(-c2ccc3nc(C(=O)NC[C@H](O)CN4CCc5ccccc5C4)cn3c2)cn1" . Reported IC50?
0.01 to 1 µM

Entry under review: "O=C(NC[C@H](O)CN1CCc2ccccc2C1)c1nn2ccc(C(F)(F)F)nc2c1F" . Reported IC50?
> 5 µM

---

MEASURED TARGET: PRMT5/MEP50 (Homo sapiens, UniProt O14744)
Construct: Full-length human PRMT5 (NP_006100)
EXPERIMENTAL PROTOCOL: PRMT5/MEP50 enzyme assay on peptide substrates (3H-SAM Flashplate)
TEST SETTINGS: PRMT5/MEP50 10 nM, H4 1-15aa peptide 100 nM, 3H-SAM 1 μM
// reported IC50 for each item listed

Consider the worked cases shown below.
CN1CCN(c2ccc3nc(C(=O)NC[C@H](O)CN4CCc5ccccc5C4)cn3c2)CC1 [Example 71]: 10 to 1000 nM
O=C(NC[C@H](O)CN1CCc2ccccc2C1)c1cn2c(n1)COC(c1ccccc1)C2 (stereo partly drawn) [Example 112]: 1000 to 5000 nM

Now look at this entry.
// lookup IC50 | system=PRMT5/MEP50 (Homo sapiens, UniProt O14744) | key= O=C(NC[C@H](O)CN1CCc2ccccc2C1)c1cn2cc(-c3cc(F)cc(F)c3)ccc2n1 [Example 16]
10 to 1000 nM

---

MEASURED TARGET: PRMT5/MEP50 (Homo sapiens)
Construct: Full-length human PRMT5 (NP_006100)
EXPERIMENTAL PROTOCOL: PRMT5/MEP50 enzyme assay on peptide substrates (3H-SAM Flashplate)
TEST SETTINGS: PRMT5/MEP50 10 nM, H4 1-15aa peptide 100 nM, 3H-SAM 1 μM
Experimental: General materials like S-adenocylmethionine (SAM), S-adenosylhomocysteine (SAH), Tris-HCl, DTT, […] (BSA) and Tween-20 were purchased from Sigma-Aldrich. 3H-SAM and 384-well streptavidin Flashplates were purchased from Perkin Elmer. […] The IC50 values were calculated using a 4-parameter variable slope fit algorithm (cpm—counts per minute, cmpd—signal in assay well, and cpmmax and cpmmin mare the respective minimum and maximum signal controls).
METRIC: IC50

Consider the worked cases shown below.
O=C(NC[C@H](O)CN1CCc2ccccc2C1)c1cn2cc(C(F)(F)F)ncc2n1 [Example 53]: 10 to 1000 nM
O=C(NC[C@H](O)[C@@H](O)CN1CCc2ccccc2C1)c1cn2c(n1)CCC(C(F)(F)F)C2 (some centres unmarked) [Example 117]: 10 to 1000 nM
O=C(NCC(O)CN1CCc2ccccc2C1)c1cn2c(n1)CC(c1ccccc1)CC2 (centres unmarked) [Example 109]: 1000 to 5000 nM
CCCc1nc(-c2ccc3nc(C(=O)NC[C@H](O)CN4CCc5ccccc5C4)cn3c2)no1 [Example 5]: 10 to 1000 nM

// lookup IC50 | system=PRMT5/MEP50 (Homo sapiens) | key= O=C(NCC(O)CN1CCc2ccccc2C1)c1cn2cc(-c3ccc(F)cc3)ccc2n1 (centres unmarked) [Example 11]
10 to 1000 nM

---

MEASURED TARGET: PRMT5/MEP50 (Homo sapiens)
Construct: Full-length human PRMT5 (NP_006100)
EXPERIMENTAL PROTOCOL: PRMT5/MEP50 enzyme assay on peptide substrates (3H-SAM Flashplate)
Type: biochemical
TEST SETTINGS: PRMT5/MEP50 10 nM, H4 1-15aa peptide 100 nM, 3H-SAM 1 μM
METRIC: IC50

O=C(NC[C@H](O)CN1CCc2ccccc2C1)c1cn2cc(-c3ccc(Cl)cn3)ccc2n1: 10 to 1000 nM
O=C(NC[C@H](O)CN1CCc2ccccc2C1)c1cn2c(n1)COC(c1ccc(F)cc1)C2 (stereo partly drawn): 10 to 1000 nM

// lookup IC50 | system=PRMT5/MEP50 (Homo sapiens) | key= "O=C(NC[C@H](O)CN1CCc2ccccc2C1)c1cn2cc(C3=CCOCC3)ccc2n1"
10 to 1000 nM
